Measurement Notes: yeast display, Sf9 membrane polyspecificity reagent, FACS + sequencing; frameworks hold sequencing errors
Measurement Name: polyreactivity (PSR sort gate)

Observe how each entry below is paired with its result.
QVQLVESGGGLVQAGGSLRLICAASGFTFRRYAMGWYRQAPGKEREFVAVITWSGTRTYYADSVKGRFTISRDNAKNTVYLQMNSLKPEDTAVYYCAAYITDVAGRAYDYWGQGTQVTVSS	high polyreactivity
QVHLVESGGGLVQAGRSLRISCAASGRTFYGYAMGWYRQAPGKERELVAAITNGGRTYYADSVKGRFTISRDNAKNTVYLQMNSLKPEDTAVYYCAAGTGRGRSTLGSYYWGQCTQVTVSS	high polyreactivity
QVQLVESGGGLVQAGGSLRLSCADSGSTLRRNAMGWYRQAPGKERELVAAISRTGASTYYADSVKGRFTISRDNAKNTVYLQMNSLKPEDTAVYYCAARANYIFFGMDYWGQGTQVTVSS	high polyreactivity
QVQLVESGGGLVQAGGSLRLSCAASGLIFQWYAMGWYRQAPGKERELVAAITGSGGSTYYADSVKGRFTISRDNAKNTVYLQMNSLKPEDTAVYYCNAGASRRYGYWGQGTQVTVSS	high polyreactivity
QVQLVESGGGLVQAGGSLRLSCAASGRISFRYAMGWSRQAPGKEWELVAAINRGGITNYADSVKGRFTISRDNAKNTVYFQMNSLKPEDTAVYYCAARYASPRYKSKMDYWGQGTQVTVSS	high polyreactivity

Query (sequence): QVQLVESGGGLVQAGGSLRLSCAASGSTFRYYAMGWYRPAPGKERELVAVISTSGNTYYADSVKGRFTISRDNAKNTVYLQMNSLKPEDTAVYYCAARGVGGQISQEYDYWGQGTQVTVSS ; field requested: polyreactivity (PSR sort gate)
low polyreactivity

Record: QVQLVESGGGLVQAGGSLRLSCAASGFTFRRYAMGWYRQAPGKERVLVAAITRGSSTYYADSVKGRFTISRDNEKNTVYLQMNSLKPEDTAVYYCAAAGFWSRPSDYWGQGTQVTVSS
low polyreactivity

Record: QVQLVESGGGLVQAGGSLRLSCAAPGSTLSYYAMGWYRQATGKERELVAAISLSVGSTYYADSVKGRFTISRDNAKNTVYLQMNSLKPEDTAVYYCAADDFYSGPFRGDYWGQGTQVTVSS
low polyreactivity

Record: QVQLVESVGCLVQAGGSLRLSCATSGSIFRYYTMGWYRQPPGKERELVARISSSGSTNYADSVKGRFTISRDNGKNTVYLQMNSLKPEDTAVYYCAARGFSWAGYFYWGQGTQVTVSS
low polyreactivity

Record: QVQLVESAGGLVQAGGSLRLSCAASGSIINRYAMGWYRQAPGKERELVAAITQSGGRTYYADSVKGRFTISRDNAKNTVYLQMNRLKPDDTAGYYCNAFRWYLYDYWGQGTLVTVSS
high polyreactivity

Record: QVQLVESGGGLVQAGGSLRLSCAASGFIFRYNPMGRYRHAPGKEREFVAAIDSGGSTYYADSVKGRFTISRDNAKNTVYLQMNSLKPEDTAVYYCNAVHEASYAGVDYWGQGTQVTVSS
low polyreactivity
